target: Nuclear receptor coactivator 3 (Homo sapiens) (UniProt Q9Y6Q9); experiment: SRC3 coactivator transcriptional activity inhibitors, primary screen, cell-based, luminescence (AID 588352); settings: HEK293 GAL4-SRC3 luciferase reporter, at 3.6 µM, stronger effect = higher value;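 note: 0% = DMSO-treated cells and 100% = gossypol-treated cells at 36 µM; higher means less SRC3-driven luciferase light from the GAL4 reporter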
Sequence (Q9Y6Q9 whole entry, looked up, the tested form may be a part): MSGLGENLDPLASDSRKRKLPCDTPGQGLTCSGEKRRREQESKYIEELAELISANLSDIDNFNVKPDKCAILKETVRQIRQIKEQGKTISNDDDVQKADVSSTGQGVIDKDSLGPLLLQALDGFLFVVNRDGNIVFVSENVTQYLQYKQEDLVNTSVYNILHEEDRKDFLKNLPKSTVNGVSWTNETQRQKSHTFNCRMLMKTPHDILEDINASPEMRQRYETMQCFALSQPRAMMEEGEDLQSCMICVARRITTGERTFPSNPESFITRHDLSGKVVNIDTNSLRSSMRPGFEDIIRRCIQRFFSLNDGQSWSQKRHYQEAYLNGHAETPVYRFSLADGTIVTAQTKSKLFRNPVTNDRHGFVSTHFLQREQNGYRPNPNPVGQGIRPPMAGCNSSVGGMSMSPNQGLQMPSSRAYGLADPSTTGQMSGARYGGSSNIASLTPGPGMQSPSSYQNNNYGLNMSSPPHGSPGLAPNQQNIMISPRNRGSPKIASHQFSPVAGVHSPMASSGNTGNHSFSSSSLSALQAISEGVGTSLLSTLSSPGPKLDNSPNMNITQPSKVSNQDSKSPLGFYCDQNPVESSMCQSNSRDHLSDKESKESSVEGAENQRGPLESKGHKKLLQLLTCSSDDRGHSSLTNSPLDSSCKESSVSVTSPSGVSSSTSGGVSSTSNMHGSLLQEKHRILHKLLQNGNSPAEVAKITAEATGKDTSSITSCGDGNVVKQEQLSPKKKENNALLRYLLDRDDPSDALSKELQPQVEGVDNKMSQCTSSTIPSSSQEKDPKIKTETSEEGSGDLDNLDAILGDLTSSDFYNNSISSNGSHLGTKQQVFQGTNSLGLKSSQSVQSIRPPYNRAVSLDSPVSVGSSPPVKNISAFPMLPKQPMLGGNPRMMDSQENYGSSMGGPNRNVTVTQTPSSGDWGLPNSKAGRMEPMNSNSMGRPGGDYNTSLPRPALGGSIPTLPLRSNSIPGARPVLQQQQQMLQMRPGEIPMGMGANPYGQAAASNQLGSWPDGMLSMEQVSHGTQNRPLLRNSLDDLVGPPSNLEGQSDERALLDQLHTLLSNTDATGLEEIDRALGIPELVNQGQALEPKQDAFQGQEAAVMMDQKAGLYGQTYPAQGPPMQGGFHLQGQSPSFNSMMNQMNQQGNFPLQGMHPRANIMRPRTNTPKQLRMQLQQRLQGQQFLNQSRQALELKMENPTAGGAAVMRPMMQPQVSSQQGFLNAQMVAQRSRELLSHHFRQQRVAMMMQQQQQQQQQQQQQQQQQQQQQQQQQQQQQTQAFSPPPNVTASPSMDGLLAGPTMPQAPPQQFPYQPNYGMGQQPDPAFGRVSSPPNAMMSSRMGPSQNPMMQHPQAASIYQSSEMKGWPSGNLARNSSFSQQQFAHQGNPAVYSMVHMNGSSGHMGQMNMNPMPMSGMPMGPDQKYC
The whole screen tested about 360,000 compounds, of which about 620 (0.17%) were called active. For the sample, actives were picked, then their nearest neighbours and some compounds at random.
quantity.measured: inhibition (%)

>  <compound>
O=C1NC(=Nc2ccc(Cl)cc2)SC1Cc1cccc(Cl)c1Cl (stereo unspecified)

>  <unit.info>
%

>  <reported.value>
11.5

$$$$
>  <compound>
O=C(CCNS(=O)(=O)c1ccccc1)NCCSc1ccc(Br)cc1

>  <unit.info>
%

>  <reported.value>
-5.67

$$$$
>  <compound>
COC(=O)/C=C(\Oc1ccccc1)C1(O)CCCCC1

>  <unit.info>
%

>  <reported.value>
9.01

$$$$
>  <compound>
Cc1cc(C)n(C(=O)c2ccc(C)c(S(=O)(=O)N3CCOCC3)c2)n1

>  <unit.info>
%

>  <reported.value>
12.7

$$$$
>  <compound>
COc1ccc2c(c1)c(=Cc1ccc(N(C)C)cc1)c1cc(-c3ccccc3)[n+](C)n12

>  <unit.info>
%

>  <reported.value>
72.6

$$$$
>  <compound>
COc1ccc(OC)c(Cc2cnc3nc(N)nc(N)c3c2C)c1

>  <unit.info>
%

>  <reported.value>
63.7

$$$$
>  <compound>
Cc1ccc(NC(=O)CCC(=O)N/N=C/c2ccco2)c(C)c1

>  <unit.info>
%

>  <reported.value>
16.4

$$$$
>  <compound>
COc1ccc(Nc2ncnc3ccc(Br)cc23)c(OC)c1

>  <unit.info>
%

>  <reported.value>
82

$$$$
>  <compound>
Cc1occc1-c1nnc(SCC(=O)NC2CCCCC2)o1

>  <unit.info>
%

>  <reported.value>
15.9

$$$$
>  <compound>
CC(NC(=O)CCCC1CCCCC1)c1ccc(S(N)(=O)=O)cc1 (stereo unspecified)

>  <unit.info>
%

>  <reported.value>
4.7

$$$$
>  <compound>
Cc1ccc(/C=N/NC(=O)C(NC(=O)c2ccccc2)c2n[nH]c(=O)c3ccccc23)cc1 (stereo unspecified)

>  <unit.info>
%

>  <reported.value>
-30.1

$$$$

---

target: Nuclear receptor coactivator 3 (Homo sapiens) (UniProt Q9Y6Q9); assay: SRC3 coactivator transcriptional activity inhibitors, primary screen, cell-based, luminescence (AID 588352); conditions: HEK293 GAL4-SRC3 luciferase reporter, at 3.6 µM, stronger effect = higher value;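 note: 0% = DMSO-treated cells and 100% = gossypol-treated cells at 36 µM; higher means less SRC3-driven luciferase light from the GAL4 reporter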
Screen size: about 360,000 compounds; about 620 (0.17%) were called active. Shown is part of a subset that was picked to be rich in actives.

>  <molecule>
COc1ccc(CCNC(=O)CCc2cn(C)c3ccccc23)c(OC)c1

>  <inhibition / %>
-10.8

$$$$
>  <molecule>
CC(CO)N1CCS(=O)(=O)CC1 (stereo not drawn)

>  <inhibition / %>
19.6

$$$$
>  <molecule>
COc1cc(OC)cc(-c2c(-c3cccs3)c3cc(-c4ccc(OC)cc4F)ccc3n2C)c1

>  <inhibition / %>
-12.6

$$$$
>  <molecule>
COc1cc(OC)cc(-c2c(-c3ccc(F)cc3)c3cc(-c4ccc5cc[nH]c5c4)ccc3n2C)c1

>  <inhibition / %>
7.21

$$$$
>  <molecule>
Cc1cccc(N2CCN(C(=O)COCc3cc(-c4ccc5c(c4)OCO5)on3)CC2)c1C

>  <inhibition / %>
-10.1

$$$$
>  <molecule>
CC1(C)NC(=O)N(CC(=O)Nc2cc(C(F)(F)F)cc(C(F)(F)F)c2)C1=O

>  <inhibition / %>
22.2

$$$$
>  <molecule>
CCCCNC(=O)C1CCCNC1=O (stereo not drawn)

>  <inhibition / %>
12.3

$$$$
>  <molecule>
Cc1cc2ncn(CCCCOc3ccccc3)c2cc1C

>  <inhibition / %>
-3.7

$$$$

Reference source for all entries: PubChem BioAssay AID588352
